Give measured protein stability index for each item. Keep answers brief.
B1: SNX3 (parent)
chain: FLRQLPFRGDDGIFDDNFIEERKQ

# Variants of: B1
# assay-comment: protein stability index of a GFP-peptide fusion (GPS, HEK-293T) (PSI 1-6); higher = more stable;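 note: lentivirally expressed fusions sorted by FACS into six bins by GFP to DsRed ratio, PSI derived from sequencing read proportions per bin multiplied by bin number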
# measurement-context: c terminus: a fixed tail appended
Give bare numbers.

Example entries begin here.
>>> print(df.to_string())
   variant_designation  result
0                 F18Q    3.94
1                 D15I    2.53
2                  F7Y    3.07

Take each entry in turn and give its protein stability index.
1. F1Q
2. I19Q
3. F7H

Output:
1: 4.96; 2: 4.12; 3: 3.52

Value sought for every listed variant: protein stability index.
1. G9E
2. R8K
3. G12A
4. R8V
5. D11T
6. F18D

Output:
3.17
3.69
3.79
3.56
3.37
4.12

Quick batch: protein stability index for everything below.
1. Q4R
2. N17C
3. D16N
4. L2I
5. E21I
6. L2A
7. L5I
8. D10I

Output:
1: 2.27; 2: 3.27; 3: 2.88; 4: 2.59; 5: 2.96; 6: 3.84; 7: 2.18; 8: 2.03

Please give protein stability index, item by item, for the list that follows.
1. I19S
2. F18P

Output:
1. 3.67
2. 3.62
